# assay.details: log P determination by HPLC on reversed-phase columns (C 18), analogous to OECD Guideline 117
# Type: physicochemical
# measurement.context: neutral range, pH 7.8, 0.001 molar aqueous ammonium hydrogencarbonate and acetonitrile
parameter: logP(neutral)

Cc1cc(F)c(-n2cnc3ccncc3c2=O)cc1SCC(F)(F)F 2.56
Cc1cc(F)c(-n2cnc3cnccc3c2=O)cc1SCC(F)(F)F 2.56
Cc1cc(Cl)c(-n2cnc3ncccc3c2=O)cc1SCC(F)(F)F 2.62
O=c1c2cccnc2ncn1-c1cc(SCC(F)(F)F)c(Cl)cc1Cl 2.68
